These entries and their values trace back to patent US20120269725A1.

target: human BChE (Homo sapiens, UniProt P06276); assay: UV-based BChE inhibition (IC50) assay; format: biochemical; conditions: IC50 (nM), non-radioactive compounds; 30 min preincubation, room temperature, pH 7.0
Sequence (P06276 29-602): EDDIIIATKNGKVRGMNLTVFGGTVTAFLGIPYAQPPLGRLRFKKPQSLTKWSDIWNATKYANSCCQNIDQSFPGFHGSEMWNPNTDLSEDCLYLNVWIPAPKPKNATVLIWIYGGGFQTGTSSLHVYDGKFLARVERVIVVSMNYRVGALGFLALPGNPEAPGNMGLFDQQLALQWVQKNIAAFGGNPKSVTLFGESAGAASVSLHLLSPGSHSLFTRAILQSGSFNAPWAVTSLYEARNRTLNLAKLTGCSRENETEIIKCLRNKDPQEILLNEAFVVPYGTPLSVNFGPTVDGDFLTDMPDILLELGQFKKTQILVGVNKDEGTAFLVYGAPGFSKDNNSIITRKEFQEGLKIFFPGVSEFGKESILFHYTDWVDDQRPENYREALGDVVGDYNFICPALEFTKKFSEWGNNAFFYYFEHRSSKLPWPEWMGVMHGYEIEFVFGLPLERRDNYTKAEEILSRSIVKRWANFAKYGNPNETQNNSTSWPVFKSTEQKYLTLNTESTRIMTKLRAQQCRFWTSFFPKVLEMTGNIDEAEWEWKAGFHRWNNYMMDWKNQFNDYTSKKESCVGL
Recorded measurements of IC50, one per entry

In the examples that follow, each entry is paired with its recorded IC50.
> print(dat)
                                   compound  recorded.value
1  Cc1cccc2c1OP(=O)(OCC1OC(n3cc(I)c(=O)[nH]c3=O)CC1O)OC2 (single isomer, unassigned) [7 - fast]       > 7000 nM
2  O=c1[nH]c(=O)n(C2CC(O)C(COP3(=O)OCc4ccccc4O3)O2)cc1I (single isomer, unassigned) [6 - fast]         1280 nM
3  CC(C)(C)c1cc(C(C)(C)C)c2c(c1F)COP(=O)(OCC1OC(n3cc(I)c(=O)[nH]c3=O)CC1F)O2 (single isomer, unassigned) [24 - fast]          549 nM
4  Cc1cn(C2CC(F)C(COP3(=O)OCc4c(F)c(C(C)(C)C)cc(C(C)(C)C)c4O3)O2)c(=O)[nH]c1=O (single isomer, unassigned) [23 - fast]          203 nM
5  Cc1cccc2c1OP(=O)(OCC1OC(n3cc(I)c(=O)[nH]c3=O)CC1O)OC2 (single isomer, unassigned) [7 - slow]         61.2 nM

As a next step, examine the compound that follows.
May I ask what IC50 has been recorded for CC(C)(C)c1cc(C(C)(C)C)c2c(c1F)COP(=O)(OCC1OC(n3cc(I)c(=O)[nH]c3=O)CC1F)O2 (single isomer, unassigned) [24 - slow] ?
19.8 nM

====

Each entry below lists one item and its recorded IC50 value.
target: UniProt P06276; assay: UV-based BChE inhibition (IC50) assay; type: biochemical; details: IC50 (nM), non-radioactive compounds; 30 min preincubation, room temperature, pH 7.0
Hi! Could you send only the number? It should be in nM, unit omitted.

> print(dat)
                                   compound  recorded.value
1  Cc1cn(C2CC(F)C(COP3(=O)OCc4c(F)c(C(C)(C)C)cc(C(C)(C)C)c4O3)O2)c(=O)[nH]c1=O (single isomer, unassigned) [23 - slow]            42.6

Here is another compound to look at.
Item O=c1[nH]c(=O)n(C2CC(O)C(COP3(=O)OCc4ccccc4O3)O2)cc1I (single isomer, unassigned) [6 - slow] has what recorded IC50?
9.2
